test: Plasma stability assay, human plasma; type: in vitro ADME

| compoundString | remaining at 2 h, 10 μM (%) |
| --- | --- |
| CCN(CC)CCOC(=O)c1ccc(N)cc1 | 0.03 |

* * *

assay: Plasma stability assay, mouse plasma; format: in vitro ADME
readoutLabel: remaining at 2 h, 10 μM (%)

| compoundString | measuredNumber |
| --- | --- |
| CCN(CC)CCOC(=O)c1ccc(N)cc1 | 3.13 |
